# System: Enterobacter cloacae
# assay overview: MIC against Gram-negative bacteria: Enterobacter cloacae
# Type: cell-based
# experimental conditions: 96-well plate, 5×10^5 CFU/mL, 37° C., 10 h
Assignment: determine reported MIC against E. cloacae for the given substances.
Numbers only, in µg/mL.

Previously resolved entries follow.
[[record]]
substance = "PRT523 (CSCGRRLCEEMTGQCRCPPRTVRPQCEVCETHSFSFHPMAGCEG; listed as Homo sapiens)"
assay_system = "Enterobacter cloacae"
recorded_result = 12.5

[[record]]
substance = "PRT494 (CNCSLVGSTHHRCDVVTGHCQCKSKFGGRACDQCSLGYRDFPDCVP; listed as Homo sapiens)"
assay_system = "Enterobacter cloacae"
recorded_result = 50

[[record]]
substance = "PRT592 (CDCDFRGTEGPGCDKASGRCLCRPGLTGPRCDQCQRGYCNRYPVCVA; listed as Homo sapiens)"
assay_system = "Enterobacter cloacae"
recorded_result = 50


// MIC against E. cloacae value for PRT502 (CECHGHAAECNVHGVCIACAHNTTGVHCEQCLPGFYGEPSRGTPGDCQP; listed as Homo sapiens) : 12.5
